Overview of reported MIC of cefepime in combination with compound across a group of compounds:
system: K. pneumoniae 34700; assay: MIC with cefepime, agar microdilution, CLSI; format: cell-based; details: compound fixed at 4 ug/ml; CTX-M-15, SHV, TEM
TEST READOUT: MIC of cefepime in combination with compound (µg/mL)

# COMPOUND, NUMBER
rows = [
    ("O=C(CSC1=NCCS1)NC(Cn1cc(C(=O)O)nn1)B(O)O (stereo not shown)", 4),
    ("O=C(CNc1nnc(S)s1)N[C@@H](Cn1cc(C(=O)O)nn1)B(O)O", 2),
    ("O=C(CSc1ccccn1)N[C@@H](Cn1cc(C(=O)O)nn1)B(O)O", 1),
    ("O=C(CNn1cnnc1S)N[C@@H](Cn1cc(C(=O)O)nn1)B(O)O", 1),
    ("O=C(CS)N[C@@H](Cn1cc(C(=O)O)nn1)B(O)O", 4),
    ("Nc1nnc(SCC(=O)NC(Cn2cc(C(=O)O)nn2)B(O)O)s1 (stereo not shown)", 1),
    ("Cc1nnc(SCC(=O)N[C@@H](Cn2cc(C(=O)O)nn2)B(O)O)[nH]1", 1),
]

---

experiment: Single dose IV PK in plasma and thigh homogenate, thigh infection model; format: in vivo, mice; conditions: female, ICR, mouse; thigh homogenate; 50 mg/kg IV single dose

# MOLECULE, C0 / ng/mL
rows = [
    ("Nc1nnc(SCC(=O)NC(Cn2cc(C(=O)O)nn2)B(O)O)s1 (stereo not shown)", 34000),
]

---

test: Single dose IV PK in plasma and thigh homogenate, thigh infection model; assay type: in vivo, mice; settings: female, ICR, mouse; thigh homogenate; 25 mg/kg IV single dose
TEST READOUT: AUC(0-inf) (ng·h/mL)

# COMPOUND, NUMBER
records = [
    ("Nc1nnc(SCC(=O)NC(Cn2cc(C(=O)O)nn2)B(O)O)s1 (stereo not shown) [MB076]", 1800),
]

---

test system: E. coli ATCC BAA202; assay: MIC with cefepime, agar microdilution, CLSI; type: cell-based; conditions: compound fixed at 4 ug/ml; SHV-1
The reader will find reported MIC of cefepime in combination with compound values listed item by item below.
TEST READOUT: MIC of cefepime in combination with compound

# COMPOUND, RESULT
measured = [
    ("Cc1nnc(SCC(=O)N[C@@H](Cn2cc(C(=O)O)nn2)B(O)O)[nH]1 [PCF_038]", "0.5 mg/L"),
    ("Nc1nnc(SCC(=O)NC(Cn2cc(C(=O)O)nn2)B(O)O)s1 (stereo not shown) [MB076]", "< 0.25 mg/L"),
    ("O=C(CS)N[C@@H](Cn1cc(C(=O)O)nn1)B(O)O [PCF_043]", "1 mg/L"),
    ("O=C(CNn1cnnc1S)N[C@@H](Cn1cc(C(=O)O)nn1)B(O)O [PCF_039]", "< 0.25 mg/L"),
    ("O=C(CSC1=NCCS1)NC(Cn1cc(C(=O)O)nn1)B(O)O (stereo not shown) [PCF_040]", "2 mg/L"),
    ("O=C(CNc1nnc(S)s1)N[C@@H](Cn1cc(C(=O)O)nn1)B(O)O [PCF_041]", "0.5 mg/L"),
    ("O=C(CSc1ccccn1)N[C@@H](Cn1cc(C(=O)O)nn1)B(O)O [PCF_042]", "< 0.25 mg/L"),
]
